- measured_on: UniProt:P23458
- Sequence (P23458 850-1154): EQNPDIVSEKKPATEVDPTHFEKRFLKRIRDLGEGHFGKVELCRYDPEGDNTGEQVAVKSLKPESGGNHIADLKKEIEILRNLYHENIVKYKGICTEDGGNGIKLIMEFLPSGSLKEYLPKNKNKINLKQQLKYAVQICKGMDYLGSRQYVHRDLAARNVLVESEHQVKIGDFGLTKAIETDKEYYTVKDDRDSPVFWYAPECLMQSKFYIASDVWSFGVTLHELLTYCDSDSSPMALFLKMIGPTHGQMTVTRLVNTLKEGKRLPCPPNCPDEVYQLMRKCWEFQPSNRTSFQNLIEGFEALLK
- experiment_description: JAK kinase assay (HTRF), JAK1
- assay_setup: catalytic domain, ATP at Km (7 μM)
quantity: EC50 (µM)
Quick note: give the figure in µM, leave out the unit.

compound | assay_result
C[C@H](NC(=O)[C@H]1CCN(c2ncnc3[nH]ccc23)CC12CC2)[C@H](O)c1ccc(C#N)cc1 [Example 126] | 0.0195
O=C(OCC1CC(F)(F)C1)[C@@H]1CCN(c2ncnc3[nH]ccc23)CC12CC2 [Example 155] | 0.03

Exercise: Any idea what its EC50 is? The compound is N#Cc1ccc(CNC(=O)[C@@H]2CCN(c3ncnc4[nH]ccc34)CC23CC3)cc1 [Example 145]
Key: 0.0644

Exercise: Any idea what its EC50 is? The compound is O=C(NCC1CCC1)C1CCN(c2ncnc3[nH]ccc23)CC12CC2 (stereo not shown) [Example 115]
Key: 0.0122

---

- experiment_description: in vitro metabolic stability in human liver microsomes
- Type: in vitro ADME
- assay_setup: human, liver microsomes, 0.5 μM compound, 0.5 mg/mL microsomes, NADPH, 40 min, 37° C.; read-out: Human liver microsome Clapp (apparent intrinsic clearance)
With a cut-off of 100 mL/min/kg, any CLint scaled at 0.5 μM strictly below it is called T; any CLint scaled at 0.5 μM meeting it or above is called F.

compound | cat
C[C@H](NC(=O)[C@H]1CCN(c2ncnc3[nH]ccc23)CC12CC2)[C@@H](O)c1ccc(F)c(F)c1 | F

Exercise: # strict comparison: is reported CLint scaled at 0.5 μM < 100 mL/min/kg? input = C[C@H](NC(=O)C1CCN(c2ncnc3[nH]ccc23)CC12CC2)c1cccc(C#N)c1 (stereo partly drawn)
Key: F

Exercise: # strict comparison: is reported CLint scaled at 0.5 μM < 100 mL/min/kg? input = `O=C(NC[C@H](O)C1CCOCC1)[C@H]1CCN(c2ncnc3[nH]ccc23)CC12CC2`
Key: T

---

- measured_on: UniProtKB P23458
- experiment_description: JAK kinase assay (HTRF), JAK1
- assay_setup: catalytic domain, ATP at Km (7 μM)
Each item that follows carries a reported pEC50.
Just so you know, pEC50 here is -log10 of the concentration in molar units; reply with that number alone.

// known answers, use as guide
compound | pEC50
N#CC1CC(CNC(=O)C2CCN(c3ncnc4[nH]ccc34)CC23CC3)C1 (stereo not shown) [Example 59] | 8.38
C[C@H](NC(=O)[C@H]1CCN(c2ncnc3[nH]ccc23)CC12CC2)[C@@H](O)c1ccccc1 [Example 152] | 8.57
O=C(NCC1(CO)CC(F)(F)C1)C1CCN(c2ncnc3[nH]ccc23)CC12CC2 (stereo not shown) [Example 35] | 8.72
O=C(N[C@@H](CO)C1CCCCC1)[C@H]1CCN(c2ncnc3[nH]ccc23)CC12CC2 [Example 24] | 8.89
O=C(NC[C@H](O)c1ccc(F)cn1)[C@H]1CCN(c2ncnc3[nH]ccc23)CC12CC2 [Example 46] | 8.51
Cc1cc([C@H](O)[C@H](C)NC(=O)[C@H]2CCN(c3ncnc4[nH]ccc34)CC23CC3)ncc1F [Example 75] | 8.21
Cc1cc([C@H](O)CNC(=O)[C@H]2CCN(c3ncnc4[nH]ccc34)CC23CC3)ncc1F [Example 44] | 8.51
NS(=O)(=O)c1ccc(CNC(=O)C2CCN(c3ncnc4[nH]ccc34)CC23CC3)cc1 (stereo not shown) [Example 33] | 8.72
O=C(N[C@H](CO)C(=O)OCC1CC(F)(F)C1)[C@H]1CCN(c2ncnc3[nH]ccc23)CC12CC2 [Example 42] | 8.57
O=C(NCC1(O)CCCCC1)[C@H]1CCN(c2ncnc3[nH]ccc23)CC12CC2 [Example 74] | 8.21

Proceeding to the next compound to report its pEC50.
Exercise: Record O=C(NCC1(CO)CCCC1)C1CCN(c2ncnc3[nH]ccc23)CC12CC2 (stereo not shown) [Example 58] : what is its pEC50 with UniProtKB P23458?
Key: 8.39

---

- measured_on: JAK2 (Homo sapiens (Human))
- experiment_description: JAK kinase assay (HTRF), JAK2
- assay_setup: catalytic domain, ATP at Km (4 μM)
- Method: Human baculovirus-expressed JAK1, 2, 3 and TYK2 were purchased from Carna Biosciences, Inc. All four purified enzymes contain only the catalytic domain. […] Inhibition of phosphorylation of a synthetic peptide was measured in an HTRF-based assay using the TK substrate-Biotin from the Cisbio HTRFKinEASE TK kit. […] The HTRF signal is read using an Envision plate reader.
quantity: EC50 (µM)
Quick note: give the figure in µM, leave out the unit.

// known answers, use as guide
compound | EC50 [µM]
C[C@H](NC(=O)[C@H]1CCN(c2ncnc3[nH]ccc23)CC12CC2)[C@@H](O)c1ccc(F)c(F)c1 [Example 149] | 0.2
O=C(N[C@H](CO)C(=O)OCc1ccccc1)[C@H]1CCN(c2ncnc3[nH]ccc23)CC12CC2 [Example 80] | 0.0218

Proceeding to the next compound to report its EC50.
Exercise: Record N#Cc1ccc([C@H](CO)NC(=O)[C@H]2CCN(c3ncnc4[nH]ccc34)CC23CC3)cc1 [Example 18] : what is its EC50 with JAK2 (Homo sapiens (Human))?
Key: 0.0035

---

- measured_on: JAK2 (Homo sapiens (Human), UniProt O60674)
- Sequence (O60674 849-1124): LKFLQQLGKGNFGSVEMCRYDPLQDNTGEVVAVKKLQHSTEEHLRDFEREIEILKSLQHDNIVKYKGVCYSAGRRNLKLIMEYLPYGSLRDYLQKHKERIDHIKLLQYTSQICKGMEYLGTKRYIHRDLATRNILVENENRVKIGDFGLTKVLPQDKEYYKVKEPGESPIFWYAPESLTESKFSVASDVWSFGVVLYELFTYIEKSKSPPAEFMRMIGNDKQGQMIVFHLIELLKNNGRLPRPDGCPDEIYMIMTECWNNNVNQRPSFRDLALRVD
- experiment_description: JAK kinase assay (HTRF), JAK2
- assay_setup: catalytic domain, ATP at Km (4 μM)
quantity: EC50 (nM)
Quick note: give the figure in nM, leave out the unit.

compound | EC50 [nM]
C[C@@H](NC(=O)[C@H]1CCN(c2ncnc3[nH]ccc23)CC12CC2)c1ccc(C#N)c(F)c1 | 24.1
COc1ccc([C@@H](C)NC(=O)C2CCN(c3ncnc4[nH]ccc34)CC23CC3)cc1F (stereo partly shown) | 59.7
COc1cccc([C@@H](C)NC(=O)C2CCN(c3ncnc4[nH]ccc34)CC23CC3)c1 (stereo partly shown) | 61.2
N#Cc1ccc(C(O)CNC(=O)C2CCN(c3ncnc4[nH]ccc34)CC23CC3)cc1 (stereo not shown) | 4.8
O=C(N[C@@H](CO)[C@H](O)c1ccc(F)cn1)[C@H]1CCN(c2ncnc3[nH]ccc23)CC12CC2 (single isomer, unassigned) | 2.4
N#C[C@H]1CC[C@H](CNC(=O)C2CCN(c3ncnc4[nH]ccc34)CC23CC3)C1 (stereo partly shown) | 22.6
C[C@H](NC(=O)[C@H]1CCN(c2ncnc3[nH]ccc23)CC12CC2)c1ccc(C#N)cn1 | 10.2
O=C(N[C@H](CO)C1CCCCC1)[C@H]1CCN(c2ncnc3[nH]ccc23)CC12CC2 | 94.5
O=C(NCC1CC(F)(F)C1)[C@H](O)CNC(=O)[C@H]1CCN(c2ncnc3[nH]ccc23)CC12CC2 (single isomer, unassigned) | 45.9
C[C@@H](NC(=O)C1CCN(c2ncnc3[nH]ccc23)CC12CC2)c1ccc(C#N)cc1 (stereo partly shown) | 52.1

Exercise: Record C[C@@H](NC(=O)C1CCN(c2ncnc3[nH]ccc23)CC12CC2)c1cccc(F)c1 (stereo partly shown) : what is its EC50 with JAK2 (Homo sapiens (Human), UniProt O60674)?
Key: 80.6

Exercise: Record `Cc1ccc([C@H](O)CNC(=O)[C@H]2CCN(c3ncnc4[nH]ccc34)CC23CC3)cc1` : what is its EC50 with JAK2 (Homo sapiens (Human), UniProt O60674)?
Key: 6.7

Exercise: Record O=C(N[C@@H](CO)Cc1ccccc1)C1CCN(c2ncnc3[nH]ccc23)CC12CC2 (stereo partly shown) : what is its EC50 with JAK2 (Homo sapiens (Human), UniProt O60674)?
Key: 30.5

Exercise: Record `COc1cc(C#N)ccc1CNC(=O)[C@H]1CCN(c2ncnc3[nH]ccc23)CC12CC2` : what is its EC50 with JAK2 (Homo sapiens (Human), UniProt O60674)?
Key: 14.2

Exercise: Record `O=C(NCC1(CO)CCCC1)[C@H]1CCN(c2ncnc3[nH]ccc23)CC12CC2` : what is its EC50 with JAK2 (Homo sapiens (Human), UniProt O60674)?
Key: 10.2

Exercise: Record `Cc1cc([C@H](CO)NC(=O)[C@H]2CCN(c3ncnc4[nH]ccc34)CC23CC3)ccc1C#N` : what is its EC50 with JAK2 (Homo sapiens (Human), UniProt O60674)?
Key: 13.5

Exercise: Record `O=C(N[C@@H](CO)C1CCCCC1)[C@H]1CCN(c2ncnc3[nH]ccc23)CC12CC2` : what is its EC50 with JAK2 (Homo sapiens (Human), UniProt O60674)?
Key: 2.7

Exercise: Record `O=C(OCC1(CO)CCCC1)[C@H]1CCN(c2ncnc3[nH]ccc23)CC12CC2` : what is its EC50 with JAK2 (Homo sapiens (Human), UniProt O60674)?
Key: 1.3

Exercise: Record `N#Cc1ccc(CNC(=O)[C@@H]2CCN(c3ncnc4[nH]ccc34)CC23CC3)cc1` : what is its EC50 with JAK2 (Homo sapiens (Human), UniProt O60674)?
Key: 251

Exercise: Record `COc1cc(CNC(=O)[C@H]2CCN(c3ncnc4[nH]ccc34)CC23CC3)ccc1C#N` : what is its EC50 with JAK2 (Homo sapiens (Human), UniProt O60674)?
Key: 29.3

Exercise: Record `C[C@@H](NC(=O)[C@H]1CCN(c2ncnc3[nH]ccc23)CC12CC2)c1ccc(C#N)cc1F` : what is its EC50 with JAK2 (Homo sapiens (Human), UniProt O60674)?
Key: 72.8

Exercise: Record `N#Cc1cccc([C@H](CO)NC(=O)[C@H]2CCN(c3ncnc4[nH]ccc34)CC23CC3)c1` : what is its EC50 with JAK2 (Homo sapiens (Human), UniProt O60674)?
Key: 5.2

Exercise: Record COc1ccc(CNC(=O)C2CCN(c3ncnc4[nH]ccc34)CC23CC3)cc1 (stereo not shown) : what is its EC50 with JAK2 (Homo sapiens (Human), UniProt O60674)?
Key: 19.6

Exercise: Record `O=C(NC[C@H](O)C1CCOCC1)[C@H]1CCN(c2ncnc3[nH]ccc23)CC12CC2` : what is its EC50 with JAK2 (Homo sapiens (Human), UniProt O60674)?
Key: 2.9

Exercise: Record O=C(N[C@@H](CO)c1ccccc1)C1CCN(c2ncnc3[nH]ccc23)CC12CC2 (stereo partly shown) : what is its EC50 with JAK2 (Homo sapiens (Human), UniProt O60674)?
Key: 12

Exercise: Record `N#Cc1ccc(CNC(=O)[C@H]2CCN(c3ncnc4[nH]ccc34)CC23CC3)cc1` : what is its EC50 with JAK2 (Homo sapiens (Human), UniProt O60674)?
Key: 6.1

Exercise: Record `O=C(OCC1(CO)CC1)[C@H]1CCN(c2ncnc3[nH]ccc23)CC12CC2` : what is its EC50 with JAK2 (Homo sapiens (Human), UniProt O60674)?
Key: 5.4

Exercise: Record `C[C@H](NC(=O)[C@H]1CCN(c2ncnc3[nH]ccc23)CC12CC2)[C@@H](O)c1ccc(F)cn1` : what is its EC50 with JAK2 (Homo sapiens (Human), UniProt O60674)?
Key: 5

Exercise: Record `COc1cc(C#N)ccc1[C@H](CO)NC(=O)[C@H]1CCN(c2ncnc3[nH]ccc23)CC12CC2` : what is its EC50 with JAK2 (Homo sapiens (Human), UniProt O60674)?
Key: 40.2

Exercise: Record `N#Cc1ccc(CNC(=O)[C@H]2CCN(c3ncnc4[nH]ccc34)CC23CC3)c(F)c1` : what is its EC50 with JAK2 (Homo sapiens (Human), UniProt O60674)?
Key: 6.4

Exercise: Record `N#Cc1ccc([C@H](O)CNC(=O)[C@H]2CCN(c3ncnc4[nH]ccc34)CC23CC3)cc1` : what is its EC50 with JAK2 (Homo sapiens (Human), UniProt O60674)?
Key: 2.7
